# System: MDA-MB-468 breast
# Experiment Description: NCI-60 one-dose screen, 48 h
# Stated Conditions: 10 µM unless noted
Compounds without any hit were thinned out: in the full panel of roughly 83,000, 20% have a hit. Calls of active or inactive are those of the source. The calls were made as follows: active = growth percent below 10; inactive = the rest.
Classes used: active, inactive

| Compound | Class Assignment |
| --- | --- |
| O=C(CCN1C(=O)/C(=C/c2ccc(Cl)cc2)SC1=S)NCCCN1CCOCC1 | inactive |
| CCc1ccccc1-n1c(N)c(C#N)c(-c2ccc(N(C)C)cc2)c(C#N)c1=O | inactive |
| COc1nc2c(cc1S(=O)(=O)c1ccccc1)CCc1c-2cnn1-c1ccc(Cl)cc1 | inactive |
| CC(NNC(=S)N1CCCCCC1)c1ccc2ccccc2n1 (configuration not stated) | inactive |
| CCOC(=O)c1cocc1C(=O)O | inactive |
| COc1cc(OC)cc(-c2ccc(-c3ccc(C(=N)N)o3)o2)c1 | inactive |
| c1ccc(CNCCN(CCNCc2ccccn2)Cc2ccc3ccccc3c2)nc1 | active |
| COc1cc(/C=C/C(=O)c2ccc(Nc3ncnc4ccccc34)cc2)cc(OC)c1 | inactive |
| O=C1/C(=C/c2ccc(Cl)cc2)COc2ccc(O)cc21 | inactive |
| COc1cccc(-c2nc3sccn3c2-c2ccnc(NCCCNS(=O)(=O)c3ccc(F)cc3)n2)c1 | inactive |
| C=C[C@H]1CCC/C=C/[C@@H]2C[C@H](O)C[C@H]2[C@H](O)/C=C/C(=O)O1 | active |
| COc1cccc(/C=C2\COc3ccc(O)cc3C2=O)c1 | inactive |
| COc1ccc(/C=C(\C#N)c2cc3ccccc3n2C)cc1 | inactive |
| Cc1ccc(Cc2cnc(NC(=O)/C=C/c3cccc(C)c3)s2)cc1 | active |
| N#C/C(=C\c1ccccn1)c1nc2cc(Cl)ccc2s1 | inactive |
| COC1=C(C)C(=O)c2c(c(CCCl)c3n2CCC3O)C1=O (configuration not stated) | inactive |
| Nc1ccc2c(c1)Cc1cc(N)c(Cl)cc1-2 | inactive |
| O=C(O)c1cn(C2CC2)c2cc(N3CCN(C(=O)CSc4nnc(-c5ccc(Cl)cc5)n4-c4ccccc4)CC3)c(F)cc2c1=O | inactive |
| Fc1ccc2nc(-c3cnn4cccnc34)sc2c1 | active |
| COc1ccc(C2Nc3nc(OC)n(C)c(=O)c3N=C3c4ccccc4C(=O)C32)cc1 (configuration not stated) | inactive |
| CC(C)NC(=O)c1cc(-c2ccc(NC(=O)Nc3ccc(N4CCOCC4)c(C(F)(F)F)c3)cc2)nc2cccnc12 | inactive |
| Cc1ccc2oc(=O)cc(/C(=C3/C=CC=N3)c3ccc[nH]3)c2c1 | active |

* * *

# Test system: MDA-MB-468 breast
# Experiment Description: NCI-60 one-dose screen, 48 h (100 = growth as untreated, 0 = no growth, -100 = all killed)
# Stated Conditions: 10 µM unless noted
About 83,000 compounds went through this panel and 20% of them were active in at least one assay; those are over-represented in the sample as a whole.

| Compound | growth, % |
| --- | --- |
| CC[N+](CC)=c1ccc2nc3c(cc(NCc4ccccc4)c4ccccc43)oc-2c1 | -88.7 |
| C=CC(=O)N1CCC(Oc2cc3c(Nc4ccc(Cl)c(Cl)c4F)ncnc3cc2OC)CC1 | -62.5 |
| CCC1=C(c2ccc(OC)cc2)C(C)(C)Oc2c1ccc(O)c2CN1CCCC1 | -45.1 |
| NC(=NCCCOc1ccc(Cl)cc1)Nc1ccc(C(F)(F)F)cc1 | -8.47 |
| C#C[C@]1(O)CC[C@H]2[C@@H]3CC=C4c5sc(Nc6cc(Cl)ccc6OC)nc5CC[C@]4(C)[C@H]3CC[C@@]21C | 4.64 |
| COc1ccc(/C(C)=C(\c2ccc(Cl)cc2)c2ccc(OCCN3CCCC3)cc2)cc1F | 37.5 |
| CN(c1ccc(F)cc1)S(=O)(=O)c1ccc(-c2cnc(C3CC3)o2)cc1 | -8.39 |
| O=C(/C=C/C12c3ccccc3C(c3ccccc31)C1C(=O)NC(=O)C12)c1ccc(F)cc1 (centres undefined) | -25 |
| CCOC(=O)c1c(NC(=O)c2ccc(C(F)(F)F)cc2)sc2c3c(ccc12)OCN(C)C3 | -76.9 |
